Origin of the recorded values: PubChem BioAssay (NCI)

Quick list: TGI per entry.
Test system: SK-MEL-5 melanoma
Protocol Summary: NCI tumour cell line growth inhibition, 48 h
The reply should be a number in µM, with the unit left off.

# Sample Smiles, Recorded Result
measured = [
    ("COc1cc2c(cc1OCCCCN1CCN(CCCCOc3cc4c(cc3OC)C(=O)N3CCC[C@H]3C=N4)CC1)N=C[C@@H]1CCCN1C2=O", 0.0476),
]

Query compound follows.
Query: Dear colleague, I am looking for the recorded TGI of the following compound: `CN(C)CC1=Nc2cccc3cccc(c23)N1`
Result: 28.7

----------
Tested on: T-47D breast
Protocol Summary: NCI tumour cell line growth inhibition, 48 h
Assay Readout: TGI (µM)
Give your result in µM as a bare value.

Study these solved cases before continuing.
# Compound, Unit Symbol, TGI
data = [
    ("CC(=O)/C(=C(/Br)I)c1ccccc1", "µM", 13.3),
    ("O=C1OC(OC/C(Br)=C(/Br)COC2OC(=O)C(Cl)=C2Cl)C(Cl)=C1Cl (stereo unspecified)", "µM", 30.8),
]

Query: Query (compound): `COc1cc(NC(=O)c2cc(O)c(C/C=C(\C)CCC=C(C)C)c(O)c2)cc2c1O[C@]1(C)CC[C@@H](O)C(C)(C)[C@H]1C2` ; field requested: TGI
Result: 6.95

----------
System: EKVX NSCLC
Protocol Summary: NCI tumour cell line growth inhibition, 48 h
*1 amine or outer side, *2 acyl side, *3 side chain or, on linkers, in order; H or OH if unused. Where a SMILES comes first, the peptide text is derived from it. [ ]: non-standard residue; d: D form. The star is where a group is joined. X31 = CC(=O)N(C)SCC(N[*:1])C(=O)[*:2]; Fmoc = O=C(OCC1c2ccccc2-c2ccccc21)*; For = O=C*
Catalogue of TGI readings, one per entry.

Guide cases for TGI, answers given:
# Compound, Experimental System, Recorded Result
data = [
    ("CC(C)OP(=O)(OC(C)C)C(Nc1cccc(C(F)(F)F)c1)c1ccccc1 (stereo not given)", "EKVX NSCLC", "> 100 µM"),
    ("C[N+]12CCCCC1C(CN1C(=O)c3ccccc3C1=O)CCC2 (stereo not given)", "EKVX NSCLC", "> 100 µM"),
    ("COC(=O)C1(C)OC(C)=NC1(C(=O)OC)C(=O)OC (stereo not given)", "EKVX NSCLC", "> 100 µM"),
    ("CNC(=O)c1cncc(/C=C/c2c(Cl)cccc2Cl)c1", "EKVX NSCLC", "> 25 µM"),
    ("CC(=O)N(C)SCC(NC(=O)C(Cc1ccccc1)NC(=O)OCC1c2ccccc2-c2ccccc21)C(=O)NC(Cc1ccccc1)C(=O)NC(Cc1cn(C=O)c2ccccc12)C(=O)NC(CCCCNC(=O)OCC1c2ccccc2-c2ccccc21)C(=O)NC(C(=O)NC(CSN(C)C(C)=O)C(=O)NC(C(N)=O)C(C)O)C(C)O (stereo not given) (Fmoc-F[X31]FW(For)K(Fmoc)T[X31]T-NH2; configuration not given here)", "EKVX NSCLC", "> 100 µM"),
]

Query: // query TGI value for entry `Cc1nc2nn(C)cc2c(=O)n1/N=C/c1ccccc1`
Result: > 100 µM

Query: Recorded TGI of `Cc1ccc(S(=O)(=O)Nc2cc(Sc3ccccc3)c(O)c3ccccc23)cc1` , please.
Result: 25.3 µM

Query: TGI lookup needed for O=C(O)C1CC2CC(=O)C1C2 (stereo not given) , thanks.
Result: > 100 µM

Query: I would be grateful if you could share the reported TGI for O=C(NC1C=Nc2ccccc2NC1=O)c1ccccc1Cl (stereo not given) .
Result: > 100 µM

Query: What TGI value was documented for this compound, `Oc1ccc(Cn2c(-c3ccc(O)cc3)nc3ccccc32)cc1` ?
Result: > 100 µM
